I'd appreciate it if you could supply Ki values for the items below.
Molecular target: IP3 -5-phosphatase
Assay: Interaction with IP3 -5-phosphatase, IP4 analogs (Experimental Example 7)
Assay type: biochemical
Conditions: apparent Ki from a Dixon plot; [3H]IP3 10 μM as substrate; average of two experiments; read-out: Ki 1,4,5-[3H]IP3 -5-phosphatase

| molecule | reported.endpoint | result |
| --- | --- | --- |
| Nc1ccc(C(=O)O[C@@H]2[C@H](OP(=O)(O)O)[C@@H](OP(=O)(O)O)[C@H](OP(=O)(O)O)[C@@H](O)[C@@H]2OP(=O)(O)O)cc1 (relative stereo) | Ki | 700 nM |
| NC1CCC(C(=O)O[C@@H]2[C@H](OP(=O)(O)O)[C@@H](OP(=O)(O)O)[C@H](OP(=O)(O)O)[C@@H](O)[C@@H]2OP(=O)(O)O)CC1 (relative stereo) | Ki | 6000 nM |

Now let's try a different one.
IN: Need Ki, item O=P(O)(O)O[C@H]1[C@H](O)[C@@H](OP(=O)(O)O)[C@H](OP(=O)(O)O)[C@@H](OP(=O)(O)O)[C@H]1O [IP4, inositol-1,3,4,5-tetraphosphoric acid, reference compound]
OUT: 2500 nM
